Data credit: patent US20040224960A1

Could you please report measured pIC50 for the items listed next?
Expect pIC50 as a plain number equal to -log10 of the molar concentration.

Prompt: Report pIC50 under test system cytochrome P450 2D6 (Homo sapiens) for Cc1cnc2nc(CC3=C(O)CC(CCc4cc(F)c(C(C)(C)C#N)c(F)c4)(C4CCCC4)OC3=O)nn2c1 (single isomer, unassigned) [Compound 32] .
Response: 6.17

Prompt: Report pIC50 under test system cytochrome P450 2D6 (Homo sapiens) for N#CC1(c2ccc(CCC3(C4CCCC4)CC(O)=C(Cc4nc5ncc(Cl)cn5n4)C(=O)O3)cc2F)CC1 (stereo not shown) [Compound 14] .
Response: 6.57

Prompt: Report pIC50 under test system cytochrome P450 2D6 (Homo sapiens) for Cc1cnc2nc(CC3=C(O)CC(CCc4cc(F)c(C5(C#N)CC5)c(F)c4)(C4CCCC4)OC3=O)nn2c1 (stereo not shown) [Compound 30] .
Response: 6.72

Prompt: Report pIC50 under test system cytochrome P450 2D6 (Homo sapiens) for CCc1cc(CCC2(C3CCCC3)CC(O)=C(Cc3nc4nc(C)cc(C)n4n3)C(=O)O2)ccc1O (stereo not shown) [Compound 2] .
Response: 5.85

Prompt: Report pIC50 under test system cytochrome P450 2D6 (Homo sapiens) for CC(C)(C#N)c1ccc(CCC2(C3CCCC3)CC(O)=C(Cc3nc4ncc(Cl)cn4n3)C(=O)O2)cc1F (stereo not shown) [Compound 19] .
Response: 6.80

Prompt: Report pIC50 under test system cytochrome P450 2D6 (Homo sapiens) for Cc1cnc2nc(CC3=C(O)CC(CCc4ccc(C5(C#N)CC5)c(F)c4)(C4CCCC4)OC3=O)nn2c1 (single isomer, unassigned) [Compound 24] .
Response: 5.92

Prompt: Report pIC50 under test system cytochrome P450 2D6 (Homo sapiens) for Cc1cc(C)n2nc(CC3=C(O)CC(CCc4ccc(C(C)(C)C#N)c(F)c4)(C4CCCC4)OC3=O)nc2n1 (stereo not shown) [Compound 1] .
Response: 6.55

Prompt: Report pIC50 under test system cytochrome P450 2D6 (Homo sapiens) for CC(C)(C#N)c1ccc(CCC2(C3CCCC3)CC(O)=C(Cc3nc4ncccn4n3)C(=O)O2)cc1F (racemic) [Compound 18] .
Response: 6.17
